Source of measurements: paper PMC9161259

# Test system: HuCCA-1 cholangiocarcinoma cancer cell line
# test-method-notes: Cytotoxic assay
# conditions: Homo sapiens, HuCC-A1, 48 h, read-out: Cytotoxic activity IC50, HuCCA-1
Please assign f whenever IC50 is at or above 20 µM, and t whenever it is below.

Determine if N#Cc1ccc(NC2=C(Cl)C(=O)c3ccccc3C2=O)cc1 shows IC50 strictly lower than 20 µM.
f

Determine if O=C1C(Br)=C(Nc2ccc(Br)cc2)C(=O)c2ccccc21 shows IC50 strictly lower than 20 µM.
f

Determine if O=C1C(Cl)=C(Nc2ccc(O)cc2)C(=O)c2ccccc21 shows IC50 strictly lower than 20 µM.
t

Determine if O=C1C(Cl)=C(Nc2ccc([N+](=O)[O-])cc2)C(=O)c2ccccc21 shows IC50 strictly lower than 20 µM.
t

Determine if O=C1C(Br)=C(Nc2ccccc2)C(=O)c2ccccc21 shows IC50 strictly lower than 20 µM.
t

Determine if O=C1C=C(Nc2ccccc2)C(=O)c2ccccc21 shows IC50 strictly lower than 20 µM.
f
